test system: NCI/ADR-RES; assay: Growth inhibition of human NCI/ADR-RES cells after 48 hrs by sulforhodamine B assay; type: functional
Readout Label: GI50

- Compound: "C[C@H]1[C@H](OCCCCO[C@H]2O[C@@H]3O[C@@]4(C)CC[C@H]5[C@H](C)CC[C@@H]([C@H]2C)[C@@]35OO4)O[C@@H]2O[C@@]3(C)CC[C@H]4[C@H](C)CC[C@@H]1[C@@]24OO3"
  Readout Label: "GI50"
  Result: "214 nM"
- Compound: "COCC(CO[C@H]1O[C@@H]2O[C@@]3(C)CC[C@H]4[C@H](C)CC[C@@H]([C@H]1C)[C@@]24OO3)O[C@H]1O[C@@H]2O[C@@]3(C)CC[C@H]4[C@H](C)CC[C@@H]([C@H]1C)[C@@]24OO3 (some centres not stated)"
  Readout Label: "GI50"
  Result: "533 nM"
